From: the supplement of paper PMC10127200

- System: FB
- Assay info: Euclidean distance of Cell Painting phenotypic profile (signed KS, 77 features) to DMSO centroid (dimensionless distance); 5 or 10 uM (library dependent); higher = stronger phenotypic change vs DMSO (phenoactivity)
- Condition notes: 48 h
Metric name: Euclidean distance
I only need the number, thanks.

[in] State the recorded Euclidean distance for this entry: COc1cc(C(C)=O)ccc1OCCCN1CCC(c2noc3cc(F)ccc23)CC1
[out] 1.43

[in] State the recorded Euclidean distance for this entry: CCCCCC(=O)O[C@]1(C(C)=O)CC[C@H]2[C@@H]3CCC4=CC(=O)CC[C@]4(C)[C@H]3CC[C@@]21C [Hydroxyprogesterone caproate]
[out] 1.18

[in] State the recorded Euclidean distance for this entry: CC1(C)Cc2c(sc(NC(=O)c3ccn[nH]3)c2C(N)=O)C(C)(C)O1
[out] 1.43

[in] State the recorded Euclidean distance for this entry: CC(C)n1nc(-c2cc3cc(O)ccc3[nH]2)c2c(N)ncnc21
[out] 4.3

[in] State the recorded Euclidean distance for this entry: CC(=O)[C@H]1CC[C@H]2[C@@H]3C=CC4=CC(=O)CC[C@@]4(C)[C@@H]3CC[C@]12C
[out] 1.15

[in] State the recorded Euclidean distance for this entry: COC(=O)c1ccccc1O [Methyl salicylate]
[out] 0.713

[in] State the recorded Euclidean distance for this entry: O=C(O)c1cccc(-c2noc(-c3ccccc3F)n2)c1
[out] 1.13

[in] State the recorded Euclidean distance for this entry: C[C@H](NC(=O)C(=O)Nc1ccccc1C(C)(C)C)C(=O)N[C@@H](CC(=O)O)C(=O)COc1c(F)c(F)cc(F)c1F
[out] 0.936
